Values were extracted from PubChem BioAssay AID588856.

assay: qHTS for Inhibitors of TGF-b: Cytotox Counterscreen; conditions: HepG2 CAGA-GFP viability, ATP luminescence, 18 h; series mostly up to 46.1 µM; also: potency is read from the fitted curve at half-maximal effect
In all, about 410,000 compounds went through this assay and about 3,100 (0.76%) were called active. The entries come from a sample that favours actives as a whole.
measure: Potency

Cc1ccc(C(O)P(=O)(OC(C)C)c2ccc(N(C)C)cc2)cc1 (stereo not given) ... inactive
O=C1CC(=O)N(Cc2ccccc2)C(=O)N1CCCCCCN1C(=O)CC(=O)N(Cc2ccccc2)C1=O ... inactive
CCOC(=O)c1ccc(NC(=O)CCn2c(=O)oc3ccccc32)cc1 ... inactive
COc1cc(Cn2c(N)c(C(=O)NCc3ccco3)c3nc4ccccc4nc32)cc(OC)c1OC ... 17.8 µM (active)

Alright, here's another molecule for you.
Given item COC(=O)C1=C(c2ccccc2)C[C@@H]2CC[C@H]1N2C(=O)NCc1ccco1 , the value recorded as its Potency is inactive
